Record set of pIC50 for target or system UniProtKB P78329.
Sequence (P78329 5-520): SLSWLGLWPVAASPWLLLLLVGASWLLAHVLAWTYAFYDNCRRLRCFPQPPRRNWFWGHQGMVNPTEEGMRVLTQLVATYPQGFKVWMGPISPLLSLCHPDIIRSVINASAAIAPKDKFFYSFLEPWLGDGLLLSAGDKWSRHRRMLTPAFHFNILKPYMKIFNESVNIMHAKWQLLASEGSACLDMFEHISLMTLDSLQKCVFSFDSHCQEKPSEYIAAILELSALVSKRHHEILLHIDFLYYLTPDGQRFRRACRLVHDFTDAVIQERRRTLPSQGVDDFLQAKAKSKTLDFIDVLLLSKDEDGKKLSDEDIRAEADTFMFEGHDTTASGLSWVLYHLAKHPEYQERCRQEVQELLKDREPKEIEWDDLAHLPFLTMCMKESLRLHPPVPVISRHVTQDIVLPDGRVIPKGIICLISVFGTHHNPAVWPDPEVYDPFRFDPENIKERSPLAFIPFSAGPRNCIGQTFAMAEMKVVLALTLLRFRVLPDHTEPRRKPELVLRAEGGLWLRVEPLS
Here pIC50 is given on a logarithmic scale as minus log10 of the concentration in mol/L.

Worked cases, pIC50 given:
INSERT INTO results (compound, measured_value) VALUES
  ('O=C(NCCC(=O)N1CCC[C@@H](COc2ccc(-c3ccn[nH]3)nc2)C1)C1CCC1', 7.37),
  ('O=S(=O)(C1CC1)N1CCC[C@@H](COc2ccc(-c3ccn[nH]3)nc2)C1', 7.00),
  ('O=C(N1CCC[C@@H](COc2ccc(-c3ccn[nH]3)nc2)C1)C(F)(F)C1(O)CCCC1', 7.28),
  ('CC(C)CC(=O)N1CC(S(=O)(=O)N2CCC[C@@H](COc3ccc(-c4ccn[nH]4)nc3)C2)C1', 8.07),
  ('Cc1cccc(COc2ccc(-c3ccn[nH]3)nc2)c1 [Reference Example 54-1]', 7.06),
  ('Cc1ccc(S(=O)(=O)c2ccc(COc3ccc(-c4ccn[nH]4)nc3)cc2)cc1', 7.40);

Record for CC(=O)N1CCC(COc2cnc(-c3ccn[nH]3)c(C)c2)CC1 under target or system UniProtKB P78329: pIC50 reported as 7.00

Record for Fc1ccc(COc2ccc(-c3ccn[nH]3)nc2)cc1F under target or system UniProtKB P78329: pIC50 reported as 7.62
